This collection of values is drawn from the supplement of paper PMC10567573.

B1: ANKRD17 (parent)
chain: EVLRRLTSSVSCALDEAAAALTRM

- Variants of: B1
- Assay Info: protein stability index of a GFP-peptide fusion (GPS, HEK-293T) (PSI 1-6); higher = more stable;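 note: lentivirally expressed fusions sorted by FACS into six bins by GFP to DsRed ratio, PSI derived from sequencing read proportions per bin multiplied by bin number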
- Experimental Context: c terminus: a fixed tail appended
Assign class by protein stability index: not lower than 2 means Satisfied; lower than 2 means Not satisfied.

Previously resolved entries follow.
> print(dat)
   mutations            cat
1       C12H      Satisfied
2       S11M      Satisfied
3       L14R  Not satisfied

Quick check, protein stability index >= 2? `L21R`
Satisfied

Quick check, protein stability index >= 2? `L6G`
Not satisfied

Quick check, protein stability index >= 2? `A19F`
Satisfied

Quick check, protein stability index >= 2? `A20F`
Not satisfied

Quick check, protein stability index >= 2? `S11G`
Not satisfied

Quick check, protein stability index >= 2? `L6C`
Satisfied

Quick check, protein stability index >= 2? `L14I`
Satisfied

Quick check, protein stability index >= 2? `S8R`
Satisfied
